Biological target: BRG-1 (Homo sapiens)
Construct: made in house; host or cells: High Five insect cells
Sequence (P51532 whole entry): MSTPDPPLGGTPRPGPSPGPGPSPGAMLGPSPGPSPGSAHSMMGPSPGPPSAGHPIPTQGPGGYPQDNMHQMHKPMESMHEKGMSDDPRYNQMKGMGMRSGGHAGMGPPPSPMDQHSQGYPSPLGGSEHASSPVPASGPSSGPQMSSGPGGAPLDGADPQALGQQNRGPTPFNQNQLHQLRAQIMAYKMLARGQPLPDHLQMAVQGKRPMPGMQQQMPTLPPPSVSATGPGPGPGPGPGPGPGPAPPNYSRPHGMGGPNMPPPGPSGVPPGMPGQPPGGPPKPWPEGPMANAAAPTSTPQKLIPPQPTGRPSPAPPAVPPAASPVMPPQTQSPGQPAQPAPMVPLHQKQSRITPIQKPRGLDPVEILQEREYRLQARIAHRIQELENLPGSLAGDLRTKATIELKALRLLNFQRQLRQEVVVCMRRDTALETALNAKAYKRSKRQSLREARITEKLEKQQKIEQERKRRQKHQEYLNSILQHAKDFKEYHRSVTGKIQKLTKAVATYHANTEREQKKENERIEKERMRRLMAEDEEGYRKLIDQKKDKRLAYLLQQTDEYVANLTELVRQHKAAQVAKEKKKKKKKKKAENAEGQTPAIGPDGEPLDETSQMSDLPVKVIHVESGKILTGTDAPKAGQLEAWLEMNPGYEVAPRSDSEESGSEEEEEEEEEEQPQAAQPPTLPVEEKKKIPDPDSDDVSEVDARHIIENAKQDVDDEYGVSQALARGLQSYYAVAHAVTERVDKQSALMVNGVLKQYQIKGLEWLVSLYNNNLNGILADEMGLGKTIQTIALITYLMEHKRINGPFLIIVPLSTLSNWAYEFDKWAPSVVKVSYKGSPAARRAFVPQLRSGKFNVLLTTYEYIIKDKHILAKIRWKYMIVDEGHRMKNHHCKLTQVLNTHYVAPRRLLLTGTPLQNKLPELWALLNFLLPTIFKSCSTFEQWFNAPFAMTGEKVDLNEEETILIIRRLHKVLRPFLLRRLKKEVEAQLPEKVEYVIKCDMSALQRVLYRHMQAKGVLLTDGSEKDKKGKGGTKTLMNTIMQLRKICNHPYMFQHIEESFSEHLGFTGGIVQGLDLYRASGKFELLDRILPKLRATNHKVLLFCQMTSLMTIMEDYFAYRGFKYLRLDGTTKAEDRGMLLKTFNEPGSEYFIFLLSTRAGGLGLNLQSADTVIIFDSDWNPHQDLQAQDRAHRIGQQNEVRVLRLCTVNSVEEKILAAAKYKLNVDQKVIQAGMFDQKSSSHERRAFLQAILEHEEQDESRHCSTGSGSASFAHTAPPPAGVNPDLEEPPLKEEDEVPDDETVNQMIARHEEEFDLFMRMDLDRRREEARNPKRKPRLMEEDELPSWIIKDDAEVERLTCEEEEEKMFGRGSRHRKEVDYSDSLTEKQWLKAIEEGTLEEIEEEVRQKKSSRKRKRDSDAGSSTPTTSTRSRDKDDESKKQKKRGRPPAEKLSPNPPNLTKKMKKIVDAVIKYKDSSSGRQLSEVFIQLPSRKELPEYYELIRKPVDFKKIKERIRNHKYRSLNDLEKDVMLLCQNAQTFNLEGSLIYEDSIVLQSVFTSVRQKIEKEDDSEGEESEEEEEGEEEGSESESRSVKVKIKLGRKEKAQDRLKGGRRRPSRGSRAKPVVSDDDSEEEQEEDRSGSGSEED
Assay: ATPase catalytic activity of BRG-1, ADP-Glo in vitro biochemical assay
Details: ATPase catalytic activity, ADP-Glo; 30 nM BRG-1, 400 μM ATP; read-out: BRG1 IC50
This section presents compounds with their documented log10 IC50 values.
Plainly stated, the numbers are log10 of IC50 given in µM.

COCCn1ncc2c1CCCN2c1ccc2cnc(CNC(=O)c3ccc4c(c3)S(=O)(=O)CCOC4)cc2n1; -0.32
O=C(NCc1cc2nc(N3CCOc4ccc(C(F)F)nc43)ccc2cn1)c1ccc2c(c1)S(=O)(=O)CCOC2; 0.08
CO[C@@H]1COc2c(-c3ccc4cnc(CNC(=O)c5ccc6c(c5)S(=O)(=O)CCOC6)cc4n3)cccc2N(C)C1; -0.06
CC1CN(c2cccc(-c3ccc4cnc(CNC(=O)c5ccc6c(c5)S(=O)(=O)C(C)CN6C)cc4n3)n2)CC(C)O1 (stereo not shown) [Compound 498]; -0.36

Prompt line: For BRG-1 (Homo sapiens), provide log10 IC50 of `Cn1ncc2c1CCCN2c1ccc2cnc(CNC(=O)c3ccc4c(c3)S(=O)(=O)CCOC4)cc2n1` please.
Response line: -0.29

Prompt line: For BRG-1 (Homo sapiens), provide log10 IC50 of `CCOc1cccc(-c2ccc3cnc(CNC(=O)c4ccc5c(c4)S(=O)(=O)[C@@H](C)COC5)cc3n2)n1` please.
Response line: -0.33

Prompt line: For BRG-1 (Homo sapiens), provide log10 IC50 of `CO[C@@H]1C[C@H]1N(C)c1cccc(-c2ccc3cnc(CNC(=O)c4ccc5c(c4)S(=O)(=O)CCOC5)cc3n2)n1` please.
Response line: -1.22

Hello, the source for this data is patent US20230416248A1, in case you need it.
